Here, each record is paired with measured LD50 data.
# EXPERIMENT: acute toxicity rating (LD50) by oral administration in mice
# TEST CONDITIONS: mouse, in vivo
Structures can show the parent of a compound that is named as a salt.
Write the number in mg/kg without appending the unit.

// known answers, use as guide
COMPOUND: CCOC(CN1CCN(CC23Oc4ccccc4C2CCCC3=O)CC1)c1ccccc1 (centres unmarked)
LD50, mg/kg: 900
//
COMPOUND: CCOC(CN1CCN(CC23Oc4ccc(F)cc4C2CCCC3O)CC1)c1ccccc1 (centres unmarked) [Compound 2, HCl]
LD50, mg/kg: 900
//
COMPOUND: CCOC(CN1CCN(CC23Oc4c(OC)cccc4C2CCCC3=O)CC1)c1ccccc1 (centres unmarked)
LD50, mg/kg: 320
//
COMPOUND: COC(CN1CCN(CC23Oc4ccccc4C2CCCC3O)CC1)c1ccccc1 (centres unmarked)
LD50, mg/kg: 480

Consider the record given below.
INPUT: For the compound shown here, CCOC(CN1CCN(CC23Oc4ccc(OC)cc4C2CCCC3O)CC1)c1ccccc1 (centres unmarked) , give the reported LD50.
OUTPUT: 900

* * *

# System: histamine type bronchospasms
# EXPERIMENT: anti-bronchoconstrictor activity in guineapigs, KONZETT and ROSSLER technique, histamine-induced bronchospasm
# Assay type: in vivo
# TEST CONDITIONS: compound 5 mg/kg^-1 I.V.; histamine 5 μg/kg^-1 i.v.
Structures can show the parent of a compound that is named as a salt.
Measured Duration (duration of action) accompanies every entry in the list below.

Before answering, review these 4 worked examples.
MOLECULE: CCOC(CN1CCN(CC23Oc4ccc(OC)cc4C2CCCC3O)CC1)c1ccccc1 (centres unmarked)
Duration (duration of action): > 45 min

MOLECULE: CCOC(CN1CCN(CC23Oc4ccccc4C2CCCC3=O)CC1)c1ccccc1 (centres unmarked)
Duration (duration of action): > 45 min

MOLECULE: CCOC(CN1CCN(CC23Oc4ccc(F)cc4C2CCCC3O)CC1)c1ccccc1 (centres unmarked) [Compound 2, HCl]
Duration (duration of action): > 60 min

MOLECULE: CCOC(CN1CCN(CC23Oc4c(OC)cccc4C2CCCC3=O)CC1)c1ccccc1 (centres unmarked)
Duration (duration of action): > 45 min

Next:
INPUT: Lookup: Duration (duration of action) / histamine type bronchospasms / CCOC(CN1CCN(CC23Oc4ccccc4C2CCCC3O)CC1)c1ccccc1 (centres unmarked)
OUTPUT: > 60 min
